Measured pest or weed control at 125 g/ha of individual entries
System: ryegrass, Italian (Italian ryegrass, Lolium multiflorum)
Assay: Test A postemergence
Assay type: in vivo
Conditions: Lolium multiflorum, post-emergence, 240 h, 125 g ai/ha, postemergence, visual injury vs untreated controls after approx. 10 d; 0 = no effect, 100 = complete control; read-out: Ryegrass, Italian plant response rating (0 to 100 scale)
Please state the figure in %; there is no need to write the unit.

Here is how some molecules turned out for pest or weed control at 125 g/ha.
molecule: CSc1ccccc1NC(=O)[C@H]1C(=O)N(C)C[C@@H]1c1ccc(F)c(Oc2ccccc2)c1 [Compound 1142]
value_measured: 0

molecule: O=C1NC[C@H](c2csc3c2CCCC3)[C@H]1C(=O)Nc1cccc(F)c1F [Compound 1163]
value_measured: 0

Would you kindly share the measured pest or weed control at 125 g/ha for Cc1c(F)cccc1NC(=O)[C@H]1C(=O)N(C)C[C@@H]1c1ccc(C(F)F)cc1 [Compound 1261] ? 50

====

System: giant foxtail (Setaria faberii)
Experiment: Test A postemergence
Format: in vivo
Settings: Setaria faberi, post-emergence, 240 h, 125 g ai/ha, postemergence, visual injury vs untreated controls after approx. 10 d; 0 = no effect, 100 = complete control; read-out: Foxtail, Giant plant response rating (0 to 100 scale)
Mark True only when pest or weed control at 125 g/ha stays strictly below 80%. Values equal to the cut-off are False.

structure_string: CN1C[C@H](c2ccc(F)c(Oc3ccccc3)c2)[C@@H](C(=O)Nc2cccc(F)c2F)C1=O
assigned_label: True
--
structure_string: Cc1cc([C@H]2CN(C)C(=O)[C@@H]2C(=O)Nc2cccc(F)c2F)on1
assigned_label: True
--
structure_string: COc1cc(C(F)(F)F)ccc1[C@H]1CNC(=O)[C@@H]1C(=O)Nc1cccc(F)c1F
assigned_label: False
--
structure_string: Cc1c(F)cccc1NC(=O)[C@H]1C(=O)N(C)C[C@@H]1c1ccc(C(F)F)cc1
assigned_label: False
--
structure_string: N#Cc1cc([C@H]2CNC(=O)[C@@H]2C(=O)Nc2ccccc2F)ccc1F
assigned_label: True

Okay, next one:
Input "Cn1ccc2ccc([C@H]3CNC(=O)[C@@H]3C(=O)Nc3cccc(F)c3F)cc21" ; condition: pest or weed control at 125 g/ha strictly below 80%. Does it hold? True

====

Test system: corn (Zea mays)
Assay: Test G Post-Emergence Protocol
Assay type: in vivo
Conditions: Zea mays, post-emergence, 312 h, 62.5 g ai/ha, evaluated after 13 days, read-out: Corn damage rating (100=total damage to plant; 0=no damage to plant)
Measured plant injury at 62.5 g/ha of individual entries
Please state the figure in %; there is no need to write the unit.

compound: CN1C[C@@H](c2ccc(C(F)(F)F)cc2)[C@H](C(=O)Nc2ccsc2)C1=O (racemic)
assayed_target: corn (Zea mays)
quantity: plant injury at 62.5 g/ha
value_measured: 0
--
compound: C=Cc1ccc([C@H]2CN(C)C(=O)[C@@H]2C(=O)Nc2ccccc2F)cc1 (racemic)
assayed_target: corn (Zea mays)
quantity: plant injury at 62.5 g/ha
value_measured: 0

// next item, plant injury at 62.5 g/ha requested
Query plant injury at 62.5 g/ha on corn (Zea mays) for CC(C)c1cc(NC(=O)[C@@H]2C(=O)N(C)C[C@H]2c2ccc(C(F)(F)F)cc2)[nH]n1 (racemic) 10

Ref: patent US12077503B2
